Reference for the values: ChEMBL document CHEMBL5661980

test: Cmax in Sprague-Dawley rat measured at 100 mg/kg, po for 1 to 24 hrs by HPLC-MS/MS analysis; format: ADME, organism-based; conditions: in vivo, time 1-24 hrs
endpoint: Cmax (µM)

# molecule.smiles, measured.result
data = [
    ("C[C@]1(O)C[C@@H](c2nc(-c3ccc4ccc(-c5ccccc5)nc4c3)c3c(N)nccn32)C1", 34.6),
]

----------
experiment: Oral bioavailability in CD-1 mouse measured at 250 mg/kg for 1 to 24 hrs by HPLC-MS/MS analysis; assay type: ADME, organism-based; settings: in vivo, time 1-24 hrs
endpoint: bioavailability

# molecule.smiles, measured.result
measured = [
    ("C[C@]1(O)C[C@@H](c2nc(-c3ccc4ccc(-c5ccccc5)nc4c3)c3c(N)nccn32)C1", "> 100%"),
]
